Test system: SW1573/WT wild type non-small lung human cell line
MEASUREMENT_NOTES: Cell growth assay (SRB) in SW1573/WT
Assay type: cell-based
PROTOCOL_CONDITIONS: Homo sapiens, SW1573, SW 1573/WT; acetylated 4-N-acyl derivatives (Table 6)
pIC50: −log10 of the molar value.
Assign rule met to entries whose pIC50 meets or exceeds 6; assign rule not met to the rest.

Solved entries:
{"columns": ["COMPOUND", "CAT"],
 "data": [
  ["CCOC(=O)Nc1ccn(C2OC(COC(C)=O)C(OC(C)=O)C2(F)F)c(=O)n1 (centres unmarked)", "rule not met"],
  ["Nc1ccn([C@@H]2O[C@H](CO)[C@@H](O)C2(F)F)c(=O)n1 [Gemcitabine, 2′,2′-difluoro-2′-deoxycytidine, reference compound]", "rule met"],
  ["CC(=O)OCC1OC(n2ccc(N3CCOC3=O)nc2=O)C(F)(F)C1OC(C)=O (centres unmarked)", "rule not met"],
  ["C#CCOC(=O)Nc1ccn(C2OC(COC(C)=O)C(OC(C)=O)C2(F)F)c(=O)n1 (centres unmarked)", "rule met"],
  ["CC(=O)OCC1OC(n2ccc(NC(=O)OCC(C)C)nc2=O)C(F)(F)C1OC(C)=O (centres unmarked)", "rule not met"],
  ["CC(=O)Nc1ccn(C2OC(COC(C)=O)C(OC(C)=O)C2(F)F)c(=O)n1 (centres unmarked)", "rule met"],
  ["CC(=O)OCC1OC(n2ccc(NC(=O)OCCCl)nc2=O)C(F)(F)C1OC(C)=O (centres unmarked)", "rule not met"],
  ["COc1cc(COC(=O)Nc2ccn(C3OC(COC(C)=O)C(OC(C)=O)C3(F)F)c(=O)n2)c([N+](=O)[O-])cc1OC (centres unmarked)", "rule met"]
]}

Request: Determine whether measured pIC50 meets or exceeds 6 for CCCCOC(=O)Nc1ccn(C2OC(COC(C)=O)C(OC(C)=O)C2(F)F)c(=O)n1 (centres unmarked)
Response: rule not met

Request: Determine whether measured pIC50 meets or exceeds 6 for CC(=O)OCC1OC(n2ccc(NC(=O)OCCl)nc2=O)C(F)(F)C1OC(C)=O (centres unmarked)
Response: rule met
